Source listed as patent US7108865B2.

# Assay Summary: clinical
# Protocol Conditions: male, human, in vivo, AUC0–96
Measurement Type: AUC(0-t) (ng·h/mL)
Please state the figure in ng·h/mL; there is no need to write the unit.

Exercise: Which AUC(0-t) value is on record for CC[C@H]1OC(=O)[C@H](C)[C@@H](O[C@H]2C[C@@](C)(OC)[C@@H](O)[C@H](C)O2)[C@H](C)[C@@H](O[C@@H]2O[C@H](C)C[C@H](N(C)C)[C@H]2O)[C@](C)(O)C[C@@H](C)CN(C)[C@H](C)[C@@H](O)[C@]1(C)O [azithromycin] ?
Solution: 17000

====

# Assay Summary: Serum azithromycin pharmacokinetics after 2 hr intravenous infusion (Example 3)
# Assay type: in vivo
# Protocol Conditions: male, human, 2.0 g total IV dose, 2 hr infusion, n = 6
Measurement Type: Tmax (h)
Please state the figure in h; there is no need to write the unit.

Exercise: Which Tmax value is on record for CC[C@H]1OC(=O)[C@H](C)[C@@H](O[C@H]2C[C@@](C)(OC)[C@@H](O)[C@H](C)O2)[C@H](C)[C@@H](O[C@@H]2O[C@H](C)C[C@H](N(C)C)[C@H]2O)[C@](C)(O)C[C@@H](C)CN(C)[C@H](C)[C@@H](O)[C@]1(C)O [azithromycin] ?
Solution: 1.8

====

# Assay Summary: Serum azithromycin pharmacokinetics after 2 hr intravenous infusion (Example 3)
# Format: in vivo
# Protocol Conditions: male, human, 1.0 g total IV dose, 2 hr infusion, n = 6
Measurement Type: Tmax (h)
Please state the figure in h; there is no need to write the unit.

Exercise: Which Tmax value is on record for `CC[C@H]1OC(=O)[C@H](C)[C@@H](O[C@H]2C[C@@](C)(OC)[C@@H](O)[C@H](C)O2)[C@H](C)[C@@H](O[C@@H]2O[C@H](C)C[C@H](N(C)C)[C@H]2O)[C@](C)(O)C[C@@H](C)CN(C)[C@H](C)[C@@H](O)[C@]1(C)O` ?
Solution: 1.9

====

# Assay Summary: Serum azithromycin pharmacokinetics after 2 g oral capsule dose, single vs divided (Example 1)
# Assay type: in vivo
# Protocol Conditions: male, human, 2 g single oral dose as eight 250 mg capsules, fasted, mean
Measurement Type: Tmax (h)
Please state the figure in h; there is no need to write the unit.

Exercise: Which Tmax value is on record for CC[C@H]1OC(=O)[C@H](C)[C@@H](O[C@H]2C[C@@](C)(OC)[C@@H](O)[C@H](C)O2)[C@H](C)[C@@H](O[C@@H]2O[C@H](C)C[C@H](N(C)C)[C@H]2O)[C@](C)(O)C[C@@H](C)CN(C)[C@H](C)[C@@H](O)[C@]1(C)O [azithromycin] ?
Solution: 1.3
